Each entry below carries its recorded z-score.
Assay: A549 lung cancer cell viability effects, profiling panel, resazurin fluorescence, 24 h, PK04 Diversity Set (AID 1171); note: test concentration not given here
Details: higher = more signal, called active from +8 up or from −8 down
I'd appreciate a reply containing only the number, no unit.

Examples with their reported z-score follow.
[N-]=[N+]=Nc1ccccc1[C@H]1OC(c2ccc(OCCCO)cc2)=N[C@@]1(CCS(=O)(=O)c1ccccc1)C(=O)N1CCCCC1	-1.01
[N-]=[N+]=Nc1ccccc1C[C@@]1(C(=O)O)N=C(c2ccc(OCCCO)cc2)O[C@@H]1c1ccccc1	0.293
C=CC[C@]1(C(=O)N(C)C)N=C(c2ccc(OCCCO)cc2)O[C@H]1c1ccccc1N=[N+]=[N-]	-0.302
CCOc1cc(C(O)C2C=CC3C(=O)N(C)C(=O)C3N2N2CCCCC2)ccc1O (stereo not given)	-0.296
C[C@@H]1ON(c2ccc(C(=O)OC(C)(C)C)cc2)[C@H](c2ccc(Br)cc2)[C@H]1C(=O)N1C(=O)OC[C@H]1Cc1ccccc1	1.23

Ask: Report z-score for C=CCOC(=O)[C@H]1[C@@H]2C(=O)O[C@@H](c3ccccc3)[C@@H](c3ccccc3)N2[C@@H](c2ccc(OCCOC(=O)[C@H]3C[C@H]4C(=O)N[C@@H](Cc5ccccc5)C(=O)N4[C@H]3c3ccc(O)cc3)cc2)[C@]12C(=O)Nc1ccc(I)cc12 please.
Reply: -0.0968
